Attribution: patent US20160039895A1

- study system: T1, human VEGFR2 on cells (PAE/KDR cells, HUVEC) (human, UniProt P35968 20-1356)
- T1 construct: whole, on cells
- T1 sequence (P35968 20-1356): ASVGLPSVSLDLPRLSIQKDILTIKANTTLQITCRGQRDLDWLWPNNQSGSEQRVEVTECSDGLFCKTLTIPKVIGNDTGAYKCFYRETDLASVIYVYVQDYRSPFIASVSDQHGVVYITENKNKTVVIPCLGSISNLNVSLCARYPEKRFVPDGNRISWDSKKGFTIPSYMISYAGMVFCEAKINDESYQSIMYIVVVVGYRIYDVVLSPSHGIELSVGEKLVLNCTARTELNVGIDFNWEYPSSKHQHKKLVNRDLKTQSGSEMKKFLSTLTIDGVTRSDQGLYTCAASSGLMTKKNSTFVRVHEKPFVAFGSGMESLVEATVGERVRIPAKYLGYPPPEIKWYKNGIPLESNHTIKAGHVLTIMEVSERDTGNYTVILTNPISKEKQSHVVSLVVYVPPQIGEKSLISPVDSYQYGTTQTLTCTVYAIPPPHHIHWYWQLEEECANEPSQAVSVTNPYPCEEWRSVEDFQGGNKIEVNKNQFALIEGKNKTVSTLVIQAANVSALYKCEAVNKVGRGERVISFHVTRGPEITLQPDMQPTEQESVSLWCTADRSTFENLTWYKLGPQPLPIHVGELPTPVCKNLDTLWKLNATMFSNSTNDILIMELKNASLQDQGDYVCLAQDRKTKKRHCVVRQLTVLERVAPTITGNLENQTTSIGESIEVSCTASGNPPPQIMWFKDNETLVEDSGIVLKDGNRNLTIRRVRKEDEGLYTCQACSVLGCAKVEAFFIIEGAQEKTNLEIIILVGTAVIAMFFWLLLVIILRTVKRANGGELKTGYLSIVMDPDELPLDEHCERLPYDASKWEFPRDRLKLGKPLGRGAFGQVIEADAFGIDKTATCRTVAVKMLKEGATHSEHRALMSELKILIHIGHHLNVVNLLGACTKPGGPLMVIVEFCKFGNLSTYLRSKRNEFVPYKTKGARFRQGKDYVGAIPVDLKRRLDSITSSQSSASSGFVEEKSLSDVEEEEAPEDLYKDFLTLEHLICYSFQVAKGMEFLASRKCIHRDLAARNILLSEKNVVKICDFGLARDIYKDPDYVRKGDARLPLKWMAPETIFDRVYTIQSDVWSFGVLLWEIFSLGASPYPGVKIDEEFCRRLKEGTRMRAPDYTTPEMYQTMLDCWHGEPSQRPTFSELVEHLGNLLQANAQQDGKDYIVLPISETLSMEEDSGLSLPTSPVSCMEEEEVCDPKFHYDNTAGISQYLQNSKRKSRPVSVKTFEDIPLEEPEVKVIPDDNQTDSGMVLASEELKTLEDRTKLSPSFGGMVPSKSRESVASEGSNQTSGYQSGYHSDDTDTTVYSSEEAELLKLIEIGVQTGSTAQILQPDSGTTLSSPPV
- protocol details: flow cytometry titration on PAE/KDR cells, optimized conditions of Example 3, anti-FLAG detection
parameter measured: Kd (pM)
Enter your answer as a number in pM; do not include the unit.

Guide cases for Kd, answers given:
INSERT INTO measurements (binder, measured) VALUES
  ('scVEGF-mJ (designed binder, Soluble protein with C-terminal hexahistidine tag, with or without N-terminal FLAG tag (tags not included in the parts); also called scVEGFmut-J) EIVKARDVYQRSYCHPIETLVDILQEYPDEIEYIFKPSCVPLMRCGGCCNDAGLECVPTEESNITMQIMRIKPYQGHHIGEMSFLQHNKCECRPKKDGSTSGSGKSSEGKGEVVKFMDVYQRSYCHPIETLVDIFQEYPDEIEYAFKPSCVPLMRCGGCCNNEGLECVPTEESNITMQIMRAKPHQGQHTGEMSFLQHNKCECRPKKD', 500),
  ('scVEGF-mA (designed binder, Soluble protein from P. pastoris with C-terminal hexahistidine tag, with or without N-terminal FLAG tag (tags not included in the parts); also called scVEGFmut-A) EVAKAMDVYQKSYCHPIETLVDILQEYPDEIGYIFKPSCVPLMRCGGCCNDAGLECVPTEESNITMQIMRIKPYQGQHIGEMSFLQHNKCECRPKKDGSTSGSGKSSEGKGEVVKFMDVYQRSYCHPIETLVDIFQEYPDKIEYAFKPSCVPLMRCGGCCNNEGLECVPTEESNITMQITRAKPHQGQHIGEMSFLQHNKCECRPKKD', 500),
  ('scVEGF-mE (designed binder, Soluble protein with C-terminal hexahistidine tag, with or without N-terminal FLAG tag (tags not included in the parts); also called scVEGFmut-E) EVVKAMDVYQRSYCHPIETLVDILQEYPDEIGYIFKPSCVPLMRCGGCCNGAGLECVPTEESNITMQIMRIKPHRGQHIGEMSFLQHNKCECRPKKDGSTSGSGKSSEGKGEVVRFMDVYQRSYCHPIETLVDIFQEYPNEIEYAFKPSCVPLMRCGGCCNNEGLECVPTEESNITMQIMRAKPHQGQHIGEMSFLQHNKCECRPKKD', 900);

Moving on to another binder below.
stdin: Could you share which Kd value was measured for scVEGFmut (designed binder, scVEGF with chain 1 F17A, E64A and chain 2 I46A, I83A (VEGF121 numbering); Soluble protein from P. pastoris with C-terminal hexahistidine tag, with or without N-terminal FLAG tag) YVEVVKAMDVYQRSYCHPIETLVDIFQEYPDEIEYIFKPSCVPLMRCGGCCNDAGLECVPTEESNITMQIMRIKPHQGQHIGEMSFLQHNKCECRPKKDGSTSGSGKSSEGKGEVVKFMDVYQRSYCHPIETLVDIFQEYPDEIEYAFKPSCVPLMRCGGCCNDEGLECVPTEESNITMQIMRAKPHQGQHIGEMSFLQHNKCECRPKKDTR ?
stdout: 55000
